Test: in vitro
Conditions: African green monkey, CC50

COMPOUND	UNIT SYMBOL	INEQUALITY SIGN	CC50
O=C(N1CCC2(CCN(Cc3ccccc3)C2)C1)C12CC3CC(C1)CC(c1ccccc1)(C3)C2 (centres unmarked)	µM	=	5.8
CC12CC3CC(C(=O)NC4CCNCC4(C)C)(C1)CC(c1ccccc1)(C3)C2 (centres unmarked)	µM	=	10.7
CN1CC(NC(=O)C23CC4CC(C2)CC(c2ccccc2)(C4)C3)C1	µM	>	10
CN1CCN(NC(=O)C23CC4CC(C)(C2)CC(c2ccccc2)(C4)C3)CC1 (centres unmarked)	µM	=	36.2
O=C(CC12CC3CC(C1)CC(c1ccccc1)(C3)C2)NCC(=O)N[C@@H]1CCN(Cc2ccccc2)C1	µM	=	2.3
O=C(CC12CC3CC(C1)CC(c1ccccc1)(C3)C2)NC1CCN(Cc2ccccc2)CC1	µM	=	1.6
CCN(CC(O)COCCC12CC3CC(CC(C3)C1)C2)C1CCCCC1 (centres unmarked)	µM	>	3
[O-][S+](NC1CCNCC1)C12CC3CC(CC(C3)C1)C2 (centres unmarked)	µM	>	100

----------
Assay: in vivo
Conditions: male, CD-1, mouse, po, 10 mg/kg
QUANTITY KIND: AUC(0-inf) (ng·h/mL)

COMPOUND	QUANTITY KIND	UNIT SYMBOL	RECORDED MEASUREMENT
CC12CC3CC(C(=O)N[C@H]4CC[C@H](N)CC4)(C1)CC(c1ccccc1)(C3)C2.Cl (stereo partly shown) [Example A78]	AUC(0-inf)	ng·h/mL	4040

----------
Assay: in vitro
Details: African green monkey, CC50
Item-by-item account of CC50

COMPOUND	INEQUALITY SIGN	CC50 / µM
N[C@H]1CC[C@H](C(=O)NC23CC4CC(C2)CC(c2ccccc2)(C4)C3)CC1	=	13.3
O=C(CC12CC3CC(CC(C3)C1)C2)NCC(=O)N[C@@H]1CCN(Cc2ccccc2)C1	>	10
CC12CC3CC(CNC4CCNCC4)(C1)CC(c1ccccc1)(C3)C2 (stereo not shown)	=	1.8
COC(=O)c1ccc(COc2ccccc2CN2CCC(NC(=O)CNC(=O)CC34CC5CC(CC(C5)C3)C4)CC2)cc1	>	10

----------
Assay: in vitro
Details: African green monkey, CC50
// values below are reported CC50

COMPOUND	INEQUALITY SIGN	CC50 / µM
CN1CCC(N(C)C(=O)C23CC4CC(C2)CC(c2ccccc2)(C4)C3)CC1 [Example A27]	>	10
O=C(CC12CC3CC(C1)CC(c1ccccc1)(C3)C2)N[C@@H]1CCN(Cc2ccccc2)C1 [Example A24]	=	7.2
NC1CCN(C(=O)C23CC4CC(C2)CC(c2ccccc2)(C4)C3)CC1 [Example A61]	>	10
O=C(NC1CN(Cc2ccccc2)C1)C12CC3CC(C1)CC(c1ccccc1)(C3)C2 [Example A36]	=	4.3

----------
wild-type Sudan Gulu measurements of Sudan Gulu SI (CC50/EC50), listed per entry.

MOLECULE	Sudan Gulu SI (CC50/EC50)
CC12CC3CC(C(=O)N4CCCN(CCCN5CCCC5)CC4)(C1)CC(c1ccccc1)(C3)C2 (centres unmarked) [Example A43]	104
CC1CCN(CC(O)COc2ccc(C34CC5CC(CC(C5)C3)C4)cc2)CC1 (centres unmarked) [Example D21]	38.2
OCCN1CCN(CC(O)COc2ccc(C34CC5CC(CC(C5)C3)C4)cc2)CC1 (centres unmarked) [Example D24]	78.7
CC12CC3CC(C(=O)N[C@H]4CC[C@H](N)CC4)(C1)CC(c1ccccc1)(C3)C2.Cl (some centres unmarked) [Example A78]	264.3
CC12CC3CC(C(=O)NC4CCNCC4)(C1)CC(c1ccccc1)(C3)C2 (centres unmarked) [Example A68]	181
